# System: Caenorhabditis elegans N2
# method-summary: mean adult lifespan of treated cohort (days); higher = longer lifespan
# measurement-context: exposure: chronic from day 1 of adulthood, single dose per compound (concentration not stated in sheet)
measure: mean adult lifespan of treated cohort

> print(dat)
                                   compound  result
1  O=c1c(O)c(-c2ccc(O)c(O)c2)oc2cc(O)cc(O)c12 [quercetin]    17.6
2  O=C(O)CCCCC1CCSS1 (stereo not drawn) [alpha-lipoic acid]    19.2
3  COc1cc(/C=C/C(=O)CC(=O)/C=C/c2ccc(O)c(OC)c2)ccc1O [curcumin]    17.1
4  Oc1ccc(/C=C/c2cc(O)cc(O)c2)cc1 [resveratrol]    19.2
5  CCCOC(=O)c1cc(O)c(O)c(O)c1 [propyl gallate]      19
6  O=C(O)CCC(=O)C(=O)O [alpha-ketoglutaric acid]    21.4
7           CCCC(CCC)C(=O)O [valproic acid]    17.6
8           CC(=O)Oc1ccccc1C(=O)O [aspirin]    17.9
9  Cc1ccc2c(c1)sc(-c1ccc(N(C)C)cc1)[n+]2C [Thioflavin T]    20.2
